# measured.on: T1, CRBN, Q96SW2
# T1 chain: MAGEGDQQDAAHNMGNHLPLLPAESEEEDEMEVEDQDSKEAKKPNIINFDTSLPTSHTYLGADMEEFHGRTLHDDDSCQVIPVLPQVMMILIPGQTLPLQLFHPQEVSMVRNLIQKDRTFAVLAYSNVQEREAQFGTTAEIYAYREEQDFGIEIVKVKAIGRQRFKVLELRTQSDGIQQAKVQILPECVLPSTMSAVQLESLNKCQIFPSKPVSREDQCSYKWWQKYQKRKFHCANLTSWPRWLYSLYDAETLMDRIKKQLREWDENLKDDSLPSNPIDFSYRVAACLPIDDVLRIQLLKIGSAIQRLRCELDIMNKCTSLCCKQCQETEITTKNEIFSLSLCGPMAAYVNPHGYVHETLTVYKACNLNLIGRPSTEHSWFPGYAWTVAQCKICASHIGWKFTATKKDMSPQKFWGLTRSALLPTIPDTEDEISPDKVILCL
# assay.summary: log2 fold change of degron read counts, EGFP-low vs EGFP+ sorted cells (limma voom), compound-induced degradation; higher = more compound-induced degradation of the degron-EGFP fusion; degrons are variants of IKZF1/3 zinc finger 2; compound dose not given here;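 note: pooled lentiviral library of zinc finger degron-EGFP fusions in mCherry-positive Jurkat cells, FACS-sorted after compound exposure, with degron abundance counted by next-generation sequencing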
# setup.conditions: Jurkat; 18 h; compound: compound 33 (diphenyl IMiD analogue)
Whole data set: some 8,300 sequences, median “log2 fold change of degron read counts, EGFP-low vs EGFP+ sorted cells (limma voom), compound-induced degradation” near -1.1, cut for the highest 2% near 3.2. What follows is part of a selection rich in the highest values, with near analogues and random picks from the rest.
quantity: log2 fold change of degron read counts
Give the figure by itself; no unit, no explanation.

What does the record list as log2 fold change of degron read counts for FNCEQCGACFTQKGNLLRHIKL [46F_47N_49E_50Q_52G_53A_54C_55F_67L_, Q9UKT9] ?
-2.07

Query FLCDVCGAYFTQKGNLLRHIKL [46F_47L_49D_50V_52G_53A_54Y_55F_67L_, Q9UKT9] next
-1.49

Query FLCDVCGAGFTQKGNLLRHIKL [46F_47L_49D_50V_52G_53A_54G_55F_67L_, Q9UKT9] next
-0.558

Query FTCNVCGAGFTQKGNLLRHIKL [46F_47T_49N_50V_52G_53A_54G_55F_67L_, Q9UKT9] next
0.811

Query FDCNVCGALFTQKGNLLRHIKL [46F_47D_49N_50V_52G_53A_54L_55F_67L_, Q9UKT9] next
-0.75

Query FTCDQCGAIFTQKGNLLRHIKL [46F_47T_49D_50Q_52G_53A_54I_55F_67L_, Q9UKT9] next
-2.46

Query FECPVCGADFTQKGNLLRHIKL [46F_47E_49P_50V_52G_53A_54D_55F_67L_, Q9UKT9] next
2.05

Query FLCNICGARFTQKGNLLRHIKL [46F_47L_49N_50I_52G_53A_54R_55F_67L_, Q9UKT9] next
-0.701

Query FICNQCGAGFTQKGNLLRHIKL [46F_47I_49N_50Q_52G_53A_54G_55F_67L_, Q9UKT9] next
-0.787

Query FACNQCGAFFTQKGNLLRHIKL [46F_47A_49N_50Q_52G_53A_54F_55F_67L_, Q9UKT9] next
-1.53

Query FNCNICGARFTQKGNLLRHIKL [46F_47N_49N_50I_52G_53A_54R_55F_67L_, Q9UKT9] next
-1.05

Query FWCEVCGATFTQKGNLLRHIKL [46F_47W_49E_50V_52G_53A_54T_55F_67L_, Q9UKT9] next
1.87

Query FTCEVCGAFFTQKGNLLRHIKL [46F_47T_49E_50V_52G_53A_54F_55F_67L_, Q9UKT9] next
0.743

Query FECNQCGRAFTQKGNLLRHIKL [46F_47E_49N_50Q_52G_53R_54A_55F_67L_, Q9UKT9] next
-2.96

Query LWCNQCGFPCTQKGNLLRHIKL [46L_47W_49N_50Q_52G_53F_54P_55C_67L_, Q9UKT9] next
-1.33

Query FDCEICGRTFTQKGNLLRHIKL [46F_47D_49E_50I_52G_53R_54T_55F_67L_, Q9UKT9] next
-1.56

Query FHCNQCGAVFTQKGNLLRHIKL [46F_47H_49N_50Q_52G_53A_54V_55F_67L_, Q9UKT9] next
-1.71

Query FICDICGARFTQKGNLLRHIKL [46F_47I_49D_50I_52G_53A_54R_55F_67L_, Q9UKT9] next
0.63

Query FTCNICGARFTQKGNLLRHIKL [46F_47T_49N_50I_52G_53A_54R_55F_67L_, Q9UKT9] next
0.916

Query FACEVCGATFTQKGNLLRHIKL [46F_47A_49E_50V_52G_53A_54T_55F_67L_, Q9UKT9] next
0.449

Query FQCEVCGATFTQKGNLLRHIKL [46F_47Q_49E_50V_52G_53A_54T_55F_67L_, Q9UKT9] next
2.01

Query FCCEVCGATFTQKGNLLRHIKL [46F_47C_49E_50V_52G_53A_54T_55F_67L_, Q9UKT9] next
2.55

Query FGCNVCGAWFTQKGNLLRHIKL [46F_47G_49N_50V_52G_53A_54W_55F_67L_, Q9UKT9] next
-0.753

Query FLCEQCGAEFTQKGNLLRHIKL [46F_47L_49E_50Q_52G_53A_54E_55F_67L_, Q9UKT9] next
-2.09

Query FICEICGAFFTQKGNLLRHIKL [46F_47I_49E_50I_52G_53A_54F_55F_67L_, Q9UKT9] next
1.46

Query FRCPICGHEFTQKGNLLRHIKL [46F_47R_49P_50I_52G_53H_54E_55F_67L_, Q9UKT9] next
-1.5

Query FRCEVCGATFTQKGNLLRHIKL [46F_47R_49E_50V_52G_53A_54T_55F_67L_, Q9UKT9] next
1.42

Query FHCNQCGHDFTQKGNLLRHIKL [46F_47H_49N_50Q_52G_53H_54D_55F_67L_, Q9UKT9] next
-3.64

Query FTCNQCGAIFTQKGNLLRHIKL [46F_47T_49N_50Q_52G_53A_54I_55F_67L_, Q9UKT9] next
-1.37
